Attribution: patent US11840533B2

EXPERIMENTAL TARGET: BRPF1 (Homo sapiens (Human), UniProt P55201)
Sequence (P55201 whole entry): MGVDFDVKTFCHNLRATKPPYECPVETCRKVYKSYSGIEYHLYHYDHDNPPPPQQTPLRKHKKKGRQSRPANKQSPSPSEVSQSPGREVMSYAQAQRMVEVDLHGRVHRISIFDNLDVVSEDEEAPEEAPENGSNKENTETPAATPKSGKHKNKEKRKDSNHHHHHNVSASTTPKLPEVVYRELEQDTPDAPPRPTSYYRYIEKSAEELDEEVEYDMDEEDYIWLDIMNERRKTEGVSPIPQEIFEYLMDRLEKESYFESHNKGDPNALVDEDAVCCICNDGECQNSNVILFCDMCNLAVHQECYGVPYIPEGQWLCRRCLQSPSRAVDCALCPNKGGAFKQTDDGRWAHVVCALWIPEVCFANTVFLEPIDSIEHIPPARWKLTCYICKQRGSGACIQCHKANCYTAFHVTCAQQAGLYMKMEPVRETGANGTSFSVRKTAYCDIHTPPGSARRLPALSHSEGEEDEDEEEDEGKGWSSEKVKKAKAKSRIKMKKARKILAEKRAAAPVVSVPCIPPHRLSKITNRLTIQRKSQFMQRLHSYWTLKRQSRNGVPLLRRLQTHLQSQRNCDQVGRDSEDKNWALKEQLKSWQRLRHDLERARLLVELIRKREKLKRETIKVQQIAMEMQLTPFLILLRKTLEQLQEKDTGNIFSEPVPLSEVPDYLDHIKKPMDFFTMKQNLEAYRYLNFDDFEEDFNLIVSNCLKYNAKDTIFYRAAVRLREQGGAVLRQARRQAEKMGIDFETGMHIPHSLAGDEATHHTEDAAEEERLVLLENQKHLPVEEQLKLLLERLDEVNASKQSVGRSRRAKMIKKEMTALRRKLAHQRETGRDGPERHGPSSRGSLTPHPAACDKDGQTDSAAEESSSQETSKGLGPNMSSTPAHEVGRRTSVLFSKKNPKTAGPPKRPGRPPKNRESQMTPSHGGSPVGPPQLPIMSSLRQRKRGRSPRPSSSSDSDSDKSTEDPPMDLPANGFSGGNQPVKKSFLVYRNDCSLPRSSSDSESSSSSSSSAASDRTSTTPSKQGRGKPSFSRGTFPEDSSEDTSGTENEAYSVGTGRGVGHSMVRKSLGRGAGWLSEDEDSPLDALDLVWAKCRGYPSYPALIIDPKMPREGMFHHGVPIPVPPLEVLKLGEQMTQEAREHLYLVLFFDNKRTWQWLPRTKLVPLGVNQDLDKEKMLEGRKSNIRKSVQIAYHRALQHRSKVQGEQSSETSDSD
MEASUREMENT DESCRIPTION: BROMOscan
QUANTITY NAME: pKd
Units for pKd: none; it is -log10 of a concentration expressed in mol/L.

Entry CCS(=O)(=O)Nc1cc(-c2cn(C)c3c(=O)[nH]ccc23)cc2c1ccn2C(C)(c1ccccn1)c1ccccn1 : pKd on BRPF1 (Homo sapiens (Human), UniProt P55201) = 6.44

---

EXPERIMENTAL TARGET: EP300 (Homo sapiens (Human), UniProt Q09472)
Sequence (Q09472 whole entry): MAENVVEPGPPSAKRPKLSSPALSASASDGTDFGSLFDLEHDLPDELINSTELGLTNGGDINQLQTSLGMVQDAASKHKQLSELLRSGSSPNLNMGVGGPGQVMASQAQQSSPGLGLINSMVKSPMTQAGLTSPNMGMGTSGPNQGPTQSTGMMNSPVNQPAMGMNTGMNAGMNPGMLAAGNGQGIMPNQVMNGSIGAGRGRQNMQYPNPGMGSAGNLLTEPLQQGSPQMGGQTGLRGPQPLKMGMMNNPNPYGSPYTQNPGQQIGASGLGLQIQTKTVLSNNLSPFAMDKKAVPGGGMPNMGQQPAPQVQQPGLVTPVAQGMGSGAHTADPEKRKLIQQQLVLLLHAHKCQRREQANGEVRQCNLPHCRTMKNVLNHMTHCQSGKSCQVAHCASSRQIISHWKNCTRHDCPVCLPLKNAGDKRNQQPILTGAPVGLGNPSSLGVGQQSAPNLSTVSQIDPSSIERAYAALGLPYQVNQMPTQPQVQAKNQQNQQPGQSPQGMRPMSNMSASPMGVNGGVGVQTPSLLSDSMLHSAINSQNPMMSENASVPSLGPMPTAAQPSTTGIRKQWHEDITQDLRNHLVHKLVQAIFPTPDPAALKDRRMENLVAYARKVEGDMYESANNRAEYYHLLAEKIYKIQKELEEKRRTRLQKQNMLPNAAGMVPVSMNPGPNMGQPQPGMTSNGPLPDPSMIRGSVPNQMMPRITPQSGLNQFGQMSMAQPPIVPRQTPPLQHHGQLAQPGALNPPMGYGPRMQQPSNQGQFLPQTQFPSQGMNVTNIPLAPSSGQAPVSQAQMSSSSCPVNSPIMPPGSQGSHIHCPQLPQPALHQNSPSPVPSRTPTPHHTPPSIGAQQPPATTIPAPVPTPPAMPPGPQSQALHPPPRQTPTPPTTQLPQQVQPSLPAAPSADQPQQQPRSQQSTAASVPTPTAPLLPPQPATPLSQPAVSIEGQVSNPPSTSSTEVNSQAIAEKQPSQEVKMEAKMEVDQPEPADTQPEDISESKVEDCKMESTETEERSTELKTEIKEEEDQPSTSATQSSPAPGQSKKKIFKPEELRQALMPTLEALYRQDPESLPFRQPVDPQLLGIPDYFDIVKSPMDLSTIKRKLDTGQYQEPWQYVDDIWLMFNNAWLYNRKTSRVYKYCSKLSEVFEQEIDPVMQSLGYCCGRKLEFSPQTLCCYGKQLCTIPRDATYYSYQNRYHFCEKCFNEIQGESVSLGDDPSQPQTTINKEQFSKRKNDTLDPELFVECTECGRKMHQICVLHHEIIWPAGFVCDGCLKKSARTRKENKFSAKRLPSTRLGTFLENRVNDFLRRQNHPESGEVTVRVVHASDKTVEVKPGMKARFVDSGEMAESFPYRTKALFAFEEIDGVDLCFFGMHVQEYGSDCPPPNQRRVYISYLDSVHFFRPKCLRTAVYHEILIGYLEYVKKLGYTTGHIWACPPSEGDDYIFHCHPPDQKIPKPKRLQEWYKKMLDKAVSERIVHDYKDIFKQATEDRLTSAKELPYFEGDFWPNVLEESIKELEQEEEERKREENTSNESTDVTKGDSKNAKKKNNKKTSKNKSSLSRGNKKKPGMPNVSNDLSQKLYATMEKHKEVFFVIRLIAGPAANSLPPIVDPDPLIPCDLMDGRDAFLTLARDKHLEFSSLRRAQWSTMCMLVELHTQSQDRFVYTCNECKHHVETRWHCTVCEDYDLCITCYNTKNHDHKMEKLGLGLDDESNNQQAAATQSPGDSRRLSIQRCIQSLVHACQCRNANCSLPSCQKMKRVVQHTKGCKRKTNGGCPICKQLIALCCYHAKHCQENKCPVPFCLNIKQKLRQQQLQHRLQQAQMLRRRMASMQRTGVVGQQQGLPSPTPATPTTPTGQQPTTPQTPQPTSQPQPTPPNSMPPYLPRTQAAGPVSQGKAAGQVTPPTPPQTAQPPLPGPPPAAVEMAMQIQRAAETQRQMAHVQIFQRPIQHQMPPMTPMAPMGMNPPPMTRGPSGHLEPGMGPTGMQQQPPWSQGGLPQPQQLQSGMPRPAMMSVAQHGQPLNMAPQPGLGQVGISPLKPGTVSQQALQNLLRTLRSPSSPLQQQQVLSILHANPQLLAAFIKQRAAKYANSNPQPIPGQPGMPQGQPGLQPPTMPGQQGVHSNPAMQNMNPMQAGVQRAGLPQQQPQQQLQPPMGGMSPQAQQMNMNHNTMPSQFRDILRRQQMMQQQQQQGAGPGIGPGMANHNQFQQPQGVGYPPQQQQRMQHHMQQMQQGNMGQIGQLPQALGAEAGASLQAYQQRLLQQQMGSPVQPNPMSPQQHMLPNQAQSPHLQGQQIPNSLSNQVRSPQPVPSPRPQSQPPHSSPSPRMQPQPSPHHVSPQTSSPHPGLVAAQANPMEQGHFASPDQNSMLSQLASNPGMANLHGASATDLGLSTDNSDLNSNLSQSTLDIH
MEASUREMENT DESCRIPTION: BROMOscan
QUANTITY NAME: Kd
Note to self: number, then unit, no commentary.

Reported Kd ( CCS(=O)(=O)Nc1cc(-c2cn(C)c3c(=O)[nH]ccc23)cc2c1ccn2C(C)(c1ccccn1)c1ccccn1 [Compound 70] ) = 37 nM
